# assayed system: hNLRP3 (Homo sapiens)
# Construct: THP-1 cells were purchased from the American Type Culture Collection; host or cells: THP-1 cells, PMA-differentiated
# procedure details: IL-1β production in PMA-differentiated THP-1 cells stimulated with gramicidin
# Assay type: cell-based
# experimental conditions: gramicidin 5 μM, IL-1β in supernatant, Table 2
# Experimental: Bioassay: IL-1β Production in PMA-Differentiated THP-1 Cells Stimulated with Gramicidin. Procedure 1: Cell culture—THP-1 cells were purchased from the American Type Culture Collection and sub-cultured according to instructions from the supplier. […] Cell free supernatant was collected and the production of IL-1β was evaluated by ELISA. […]
assay readout: IC50

Below: 3 molecules and their reported IC50.
In: For the molecule shown here, `CCc1cc(C#N)cc(CC)c1NC(=O)NS(=O)(=O)c1cc(C(C)(C)O)cs1` , give the reported IC50.
Out: 1000 to 5000 nM

In: Same lookup for `O=C(Nc1c2c(cc3c1CCC3)CCC2)NS(=O)(=O)c1cc(C2(O)CC2)cs1` , please.
Out: < 1000 nM

In: Same question for `CCc1cccc(CC)c1NC(=O)NS(=O)(=O)c1ncc(C(C)(C)O)s1` please.
Out: 1000 to 5000 nM

Turning to the following molecule.
In: Entry `CC(C)(O)c1cnc(S(=O)(=O)NC(=O)Nc2c3c(c(F)c4c2CCC4)CCC3)s1` has what IC50?
Out: < 1000 nM

###

# assayed system: hNLRP3 (Homo sapiens, UniProt Q96P20)
# Construct: THP-1 cells were purchased from the American Type Culture Collection; host or cells: THP-1 cells, PMA-differentiated
# Sequence (Q96P20 whole entry): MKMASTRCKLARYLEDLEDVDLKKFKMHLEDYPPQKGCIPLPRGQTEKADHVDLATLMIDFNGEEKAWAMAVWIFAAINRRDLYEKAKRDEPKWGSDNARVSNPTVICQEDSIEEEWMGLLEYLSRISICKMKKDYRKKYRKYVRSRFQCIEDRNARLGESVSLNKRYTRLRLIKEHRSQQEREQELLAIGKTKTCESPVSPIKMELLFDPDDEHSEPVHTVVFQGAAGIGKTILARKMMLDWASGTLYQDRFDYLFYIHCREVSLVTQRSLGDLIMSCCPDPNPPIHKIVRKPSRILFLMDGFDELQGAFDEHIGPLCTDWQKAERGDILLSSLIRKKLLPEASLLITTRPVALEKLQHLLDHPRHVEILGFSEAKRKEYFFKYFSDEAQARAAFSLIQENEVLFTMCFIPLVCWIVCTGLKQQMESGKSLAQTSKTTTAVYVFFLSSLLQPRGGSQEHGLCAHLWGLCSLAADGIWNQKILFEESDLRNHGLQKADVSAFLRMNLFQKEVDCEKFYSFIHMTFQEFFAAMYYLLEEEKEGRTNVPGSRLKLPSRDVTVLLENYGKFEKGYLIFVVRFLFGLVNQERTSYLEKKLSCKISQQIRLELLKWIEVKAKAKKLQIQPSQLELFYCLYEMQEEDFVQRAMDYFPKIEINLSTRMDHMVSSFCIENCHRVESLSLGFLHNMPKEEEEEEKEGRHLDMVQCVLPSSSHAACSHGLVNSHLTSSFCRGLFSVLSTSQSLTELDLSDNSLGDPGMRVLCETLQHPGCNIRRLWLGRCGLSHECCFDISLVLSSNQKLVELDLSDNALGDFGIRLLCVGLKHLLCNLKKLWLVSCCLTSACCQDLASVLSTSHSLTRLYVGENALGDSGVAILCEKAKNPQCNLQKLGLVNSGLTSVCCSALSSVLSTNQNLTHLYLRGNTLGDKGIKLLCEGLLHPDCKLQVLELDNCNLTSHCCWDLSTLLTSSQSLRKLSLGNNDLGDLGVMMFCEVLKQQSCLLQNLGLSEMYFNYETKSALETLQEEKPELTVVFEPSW
# procedure details: IL-1β production in PMA-differentiated THP-1 cells stimulated with gramicidin
# Format: cell-based
# experimental conditions: gramicidin 5 μM, IL-1β in supernatant, Table 2
assay readout: IC50

For orientation, consider the following solved cases.
In: Quick one: IC50 for CC(C)c1cc(F)cc(C(C)C)c1NC(=O)NS(=O)(=O)c1cc(C(C)(C)O)c(Cl)s1 [Compound 253] ?
Out: < 1 µM

In: Same lookup for CC(C)c1cc(F)cc(C(C)C)c1NC(=O)NS(=O)(=O)c1ncc(C(C)(C)O)s1 [Compound 139] , please.
Out: < 1 µM

Dear colleague, could you please provide IC50 for the compounds listed below?
1. CC(C)c1cc(F)cc(C(C)C)c1NC(=O)NS(=O)(=O)c1cc(C(C)(C)O)cs1 [Compound 211]
2. Cc1sc(S(=O)(=O)NC(=O)Nc2c(C(C)C)ccc(Cl)c2C(C)C)cc1C(C)(C)O [Compound 153]
3. CC(C)c1cccc(C(C)C)c1NC(=O)NS(=O)(=O)c1ccc(C2(O)CC2)s1 [Compound 201]
4. CC(C)c1ccc(F)c(C(C)C)c1NC(=O)NS(=O)(=O)c1ncc(C2(O)CCCCC2)s1 [Compound 167]
5. CC(C)c1cc(Cl)cc(C(C)C)c1NC(=O)NS(=O)(=O)c1cc(C2(O)CC2)cs1 [Compound 229]
6. CC(C)c1cc(C#N)cc(C(C)C)c1NC(=O)NS(=O)(=O)c1nc(C(C)(C)O)cs1 [Compound 146]

Out:
["< 1 µM", "5 to 15 µM", "1 to 5 µM", "5 to 15 µM", "< 1 µM", "1 to 5 µM"]

###

# assayed system: hNLRP3 (Homo sapiens, UniProt Q96P20)
# Construct: THP-1 cells were purchased from the American Type Culture Collection; host or cells: THP-1 cells, PMA-differentiated
# procedure details: IL-1β production in PMA-differentiated THP-1 cells stimulated with gramicidin
# Format: cell-based
# experimental conditions: gramicidin 5 μM, IL-1β in supernatant, Table 2
Provide the recorded IC50 for the entries that follow.

A selection of reference data follows.
In: Entry CC(C)c1ccc(Cl)c(C(C)C)c1NC(=O)NS(=O)(=O)c1ncc(C(C)(C)O)s1 [Compound 179] : reported IC50 = ?
Out: 1 to 5 µM

In: Also CCc1cccc(CC)c1NC(=O)NS(=O)(=O)c1cc(C(C)(C)O)cs1 [Compound 173] ?
Out: 15 to 35 µM

In: Input CC(C)c1ccc(F)c(C(C)C)c1NC(=O)NS(=O)(=O)c1ccc(C(C)(C)O)s1 [Compound 185]
Out: 1 to 5 µM

For each entry beneath this line, provide reported IC50.
1. CC(C)(O)c1ncsc1S(=O)(=O)NC(=O)Nc1c2c(c(F)c3c1CCC3)CCC2 [Compound 268]
2. N#Cc1c2c(c(NC(=O)NS(=O)(=O)c3ccc(C4(O)CC4)s3)c3c1CCC3)CCC2 [Compound 178]

Out:
1. 1 to 5 µM
2. 1 to 5 µM

###

# assayed system: hNLRP3 (Homo sapiens)
# Construct: THP-1 cells were purchased from the American Type Culture Collection; host or cells: THP-1 cells, PMA-differentiated
# procedure details: IL-1β production in PMA-differentiated THP-1 cells stimulated with gramicidin
# Type: cell-based
# experimental conditions: gramicidin 5 μM, IL-1β in supernatant, Table 2
Field: IC50. Provide a value for each of the compounds that follow.

These recorded examples may help you get a feel for the data.
In: Find IC50 (hNLRP3 (Homo sapiens)) for the entry `N#Cc1c2c(c(NC(=O)NS(=O)(=O)c3cc(C4(O)CC4)co3)c3c1CCC3)CCC2`
Out: < 1 µM

In: Request: `CC(C)(O)c1ncsc1S(=O)(=O)NC(=O)Nc1c2c(c(Cl)c3c1CCC3)CCC2`
Out: 5 to 15 µM

In: Same thing, different compound: `CC(C)c1ccc(F)c(C(C)C)c1NC(=O)NS(=O)(=O)c1ncc(C2(O)CCCC2)s1`
Out: 5 to 15 µM

In: Same question for `Cc1sc(S(=O)(=O)NC(=O)Nc2c(C(C)C)ccc(C#N)c2C(C)C)cc1C(C)(C)O` please.
Out: 5 to 15 µM

In: Would you mind doing `CCc1ccc2c(c1NC(=O)NS(=O)(=O)c1ncc(C(C)(C)O)s1)CCC2` as well?
Out: 1 to 5 µM

# batch size: 7; output IC50 per entry
1. CC(C)c1ccc(F)c(C(C)C)c1NC(=O)NS(=O)(=O)c1cc(C2(O)CC2)co1
2. CC(C)c1cncc(C(C)C)c1NC(=O)NS(=O)(=O)c1ncc(C(C)(C)O)s1
3. CC(C)c1cc(Cl)cc(C(C)C)c1NC(=O)NS(=O)(=O)c1ccc(C2(O)CC2)s1
4. CC(C)c1cc(F)cc(C(C)C)c1NC(=O)NS(=O)(=O)c1cc(C2(O)CC2)co1
5. CC(C)c1ccc(F)c(C(C)C)c1NC(=O)NS(=O)(=O)c1cnc(C(C)(C)O)s1
6. Cc1nc(S(=O)(=O)NC(=O)Nc2c(C(C)C)cc(F)cc2C(C)C)sc1C(C)(C)O
7. O=C(Nc1c2c(c(Cl)c3c1CCC3)CCC2)NS(=O)(=O)c1ccc(C2(O)CC2)s1

Out:
["< 1 µM", "1 to 5 µM", "< 1 µM", "< 1 µM", "5 to 15 µM", "5 to 15 µM", "1 to 5 µM"]

Provide IC50 for all items below, preserving their order.
1. CC(C)(O)c1cnc(S(=O)(=O)NC(=O)Nc2c3c(c(C#N)c4c2CCC4)CCC3)s1
2. CC(C)c1cc(F)cc(C(C)C)c1NC(=O)NS(=O)(=O)c1cc(C2(O)CC2)cs1
3. CC(C)(O)c1csc(S(=O)(=O)NC(=O)Nc2c3c(c(Cl)c4c2CCC4)CCC3)c1

Out:
["1 to 5 µM", "< 1 µM", "< 1 µM"]

In: Notebook entry, hNLRP3 (Homo sapiens) assay: IC50 of `CC(C)c1ccc(Cl)c(C(C)C)c1NC(=O)NS(=O)(=O)c1cc(C(C)(C)O)cs1` = ?
Out: < 1 µM

###

# assayed system: hNLRP3 (Homo sapiens)
# Construct: THP-1 cells were purchased from the American Type Culture Collection; host or cells: THP-1 cells, PMA-differentiated
# procedure details: IL-1β production in PMA-differentiated THP-1 cells stimulated with gramicidin
# Assay type: cell-based
# experimental conditions: gramicidin 5 μM, IL-1β in supernatant, Table 2
pIC50: −log10 of the molar value.
Please respond with reported pIC50 for every item in the list.

These solved cases illustrate the format of a correct answer.
In: State the recorded pIC50 for this entry: Cc1cc(C(C)C)c(NC(=O)NS(=O)(=O)c2cnc(C(C)(C)O)s2)c(C(C)C)c1 [Compound 272]
Out: 5.30 to 6.00

In: Next record, please: CC(C)c1cccc(C(C)C)c1NC(=O)NS(=O)(=O)c1ncc(C(C)(C)O)s1 [Compound 261]
Out: 5.30 to 6.00

In: Then this compound: CC(C)c1ccc(Cl)c(C(C)C)c1NC(=O)NS(=O)(=O)c1cc(C2(O)CC2)co1 [Compound 181]
Out: > 6.00

In: For CC(C)(O)c1cnc(S(=O)(=O)NC(=O)Nc2cccc3c2CCC3)s1 [Compound 190] then?
Out: 5.30 to 6.00

In: Do the same for O=C(Nc1cccc2c1CCC2)NS(=O)(=O)c1cc(C2(O)CC2)co1 [Compound 192] please
Out: 5.30 to 6.00

In: What do you get for O=C(Nc1c2c(c(Cl)c3c1CCC3)CCC2)NS(=O)(=O)c1cc(C2(O)CC2)cs1 [Compound 210] ?
Out: > 6.00

Report pIC50 for each item below.
1. Cc1nc(S(=O)(=O)NC(=O)Nc2c(C(C)C)ccc(Cl)c2C(C)C)sc1C(C)(C)O [Compound 149]
2. CC(C)c1ccc(F)c(C(C)C)c1NC(=O)NS(=O)(=O)c1ncc(C(C)(C)O)s1 [Compound 213]
3. CC(C)c1cc(C#N)cc(C(C)C)c1NC(=O)NS(=O)(=O)c1cc(C2(O)CC2)co1 [Compound 235]
4. Cc1sc(S(=O)(=O)NC(=O)Nc2c(C(C)C)cc(Cl)cc2C(C)C)cc1C(C)(C)O [Compound 156]
5. CC(C)(O)c1csc(S(=O)(=O)NC(=O)Nc2c3c(c(C#N)c4c2CCC4)CCC3)c1 [Compound 224]
6. CC(C)c1cc(F)cc(C(C)C)c1NC(=O)NS(=O)(=O)c1ccc(C2(O)CC2)s1 [Compound 198]
7. CC(C)(O)c1cnc(S(=O)(=O)NC(=O)Nc2c3c(cc4c2CCC4)CCC3)s1 [Compound 233]
8. CC(C)c1ccc(F)c(C(C)C)c1NC(=O)NS(=O)(=O)c1cc(C(C)(C)O)cs1 [Compound 228]

Out:
4.46 to 4.82
> 6.00
> 6.00
> 6.00
> 6.00
> 6.00
> 6.00
> 6.00

For each of the compounds below, state pIC50.
1. CC(C)c1ccc(F)c(C(C)C)c1NC(=O)NS(=O)(=O)c1ccc(C2(O)CC2)s1 [Compound 195]
2. CC(C)c1cccc(C(C)C)c1NC(=O)NS(=O)(=O)c1ccc(C(C)(C)O)s1 [Compound 188]

Out:
1: 5.30 to 6.00; 2: 5.30 to 6.00
